- System: Miltenberger Antibody Positive Panel
- EXPERIMENT DESCRIPTION: Reactivity of modified RBCs against the Miltenberger Antibody Positive Panel
- Assay type: cell-based, human
- Set-up: key: 0 or ‘−’ no agglutination; 0 or ‘−’ no agglutination; 1+ or 3=very weak agglutination; 1+ or 3=very weak agglutination; 2+ or 5=weak agglutination; 2+ or 5=weak agglutination; 3+ or 8=moderate strong agglutination; 3+ or 8=moderate strong agglutination; 4+ or 10/12=strong agglutination; 4+ or 10/12=strong agglutination; 4+ or 10/12=strong agglutination
- PARTICULARS: Table 9; construct 50 μg/ml
No end group written: not given here.
// reported score vs panel 15 TAP2 per item
Enter a number only.

Given M26: DOPE peptide-lipid construct: Mur peptide YPAHTANEV, leader c, spacer CMG(2) (YPAHTANEVC; also: DOPE peptide-lipid construct via leader Cys, spacer CMG(2)) , state its recorded score vs panel 15 TAP2.
3

I'd like to know its score vs panel 15 TAP2. The substance in question is M30: DOPE peptide-lipid construct: Mur peptide DTYPAHTANE, leader c, spacer CMG(2) (DTYPAHTANEC; also: DOPE peptide-lipid construct via leader Cys, spacer CMG(2))
8
